# Tested on: HeLa
# PROTOCOL_SUMMARY: Cytotoxicity against paclitaxel-resistant human HeLa cells after 48 hrs by MTT assay
# Type: functional, cell-based
MEASURE: IC50 (µM)
Answer format: numeric, µM implied, no suffix.

Tell me the measured IC50 of "COc1cc([C@@H]2C[C@]2(CO)C(=O)Nc2ccccc2Cl)cc(OC)c1OC" , please. 10.7

====

# STUDY_SYSTEM: Tubulin (Homo sapiens) (UniProt P68371+Q9H4B7+P0DPH7+P68366+Q13509+Q71U36+P04350+Q3ZCM7+P07437+P68363+Q9BQE3+Q6PEY2+Q13885+Q9BVA1+Q9BUF5)
# PROTOCOL_SUMMARY: Activation of tubulin (unknown origin) polymerization at 10 uM
# Format: protein-complex assay
MEASURE: Activity

{"columns": ["COMPOUND", "Activity"],
 "data": [
  ["CCOC(=O)C1(C(=O)Nc2ccc(F)cc2)CC1c1cc(OC)c(OC)c(OC)c1 (trans isomer)", "7.9%"],
  ["CCOC(=O)C1(C(=O)Nc2cccc(Cl)c2)CC1c1cc(OC)c(OC)c(OC)c1 (stereo in doubt; cis)", "50%"]
]}

Tell me the measured Activity of "COc1cc([C@@H]2C[C@]2(CO)C(=O)Nc2ccccc2)cc(OC)c1OC" , please. 31.5%

Tell me the measured Activity of CCOC(=O)C1(C(=O)NCc2ccc(OC)cc2)CC1c1cc(OC)c(OC)c(OC)c1 (trans isomer) , please. 50%

Tell me the measured Activity of "CCOC(=O)[C@]1(C(=O)NCc2ccc(C)cc2)C[C@H]1c1cc(OC)c(OC)c(OC)c1" , please. 79.3%

Tell me the measured Activity of CCOC(=O)C1(C(=O)Nc2ccccc2)CC1c1cc(OC)c(OC)c(OC)c1 (cis isomer) , please. 23.2%

Tell me the measured Activity of "CCOC(=O)[C@]1(C(=O)Nc2ccccc2Cl)C[C@H]1c1cc(OC)c(OC)c(OC)c1" , please. 28.6%

====

Overview of recorded log10 of IC50 for various compounds
# System: SW480
# PROTOCOL_SUMMARY: Cytotoxicity against human SW480 cells after 48 hrs by MTT assay
# Format: functional, cell-based
# PARTICULARS: Homo sapiens, SW480, 48 h
Log scale reminder: IC50 in µM, then log10 taken.

Consider the following illustrative entries.
{"columns": ["COMPOUND", "STUDY_SYSTEM", "OBSERVED_RESULT"],
 "data": [
  ["COc1cc([C@@H]2C[C@]2(CO)C(=O)Nc2ccccc2)cc(OC)c1OC", "SW480", 1.52],
  ["CCOC(=O)[C@]1(C(=O)NCc2ccc(C)cc2)C[C@H]1c1cc(OC)c(OC)c(OC)c1", "SW480", 1.56],
  ["CCOC(=O)[C@]1(C(=O)Nc2ccccc2)C[C@@H]1c1cc(OC)c(OC)c(OC)c1", "SW480", 1.50],
  ["CC(=O)O[C@H]1C(=O)[C@@]2(C)[C@H]([C@H](OC(=O)c3ccccc3)[C@]3(O)C[C@H](OC(=O)[C@H](O)[C@@H](NC(=O)c4ccccc4)c4ccccc4)C(C)=C1C3(C)C)[C@]1(OC(C)=O)CO[C@@H]1C[C@@H]2O", "SW480", -1.92]
]}

Tell me the measured log10 of IC50 of "COc1cc([C@@H]2C[C@@]2(CO)C(=O)Nc2ccccc2)cc(OC)c1OC" , please. 1.89

Tell me the measured log10 of IC50 of CCOC(=O)C1(C(=O)Nc2cccc(Cl)c2)CC1c1cc(OC)c(OC)c(OC)c1 (stereo in doubt; cis) , please. 1.57

Tell me the measured log10 of IC50 of CCOC(=O)C1(C(=O)Nc2ccc(OC)cc2)CC1c1cc(OC)c(OC)c(OC)c1 (cis isomer) , please. 1.82

====

# STUDY_SYSTEM: Tubulin
# PROTOCOL_SUMMARY: Activation of tubulin (unknown origin) polymerization
Overview of recorded EC50 for various molecules
Answer format: numeric, µM implied, no suffix.

Provide value of EC50 for this record tested with Tubulin: "CCOC(=O)[C@]1(C(=O)Nc2ccccc2Cl)C[C@H]1c1cc(OC)c(OC)c(OC)c1" 16.9

Provide value of EC50 for this record tested with Tubulin: "COc1cc([C@@H]2C[C@]2(CO)C(=O)Nc2ccccc2Cl)cc(OC)c1OC" 19.7

Provide value of EC50 for this record tested with Tubulin: "CC(=O)O[C@H]1C(=O)[C@@]2(C)[C@H]([C@H](OC(=O)c3ccccc3)[C@]3(O)C[C@H](OC(=O)[C@H](O)[C@@H](NC(=O)c4ccccc4)c4ccccc4)C(C)=C1C3(C)C)[C@]1(OC(C)=O)CO[C@@H]1C[C@@H]2O" 1.23

Provide value of EC50 for this record tested with Tubulin: "CCOC(=O)[C@]1(C(=O)NCc2ccc(C)cc2)C[C@H]1c1cc(OC)c(OC)c(OC)c1" 5.83

Provide value of EC50 for this record tested with Tubulin: "COc1cc([C@@H]2C[C@]2(CO)C(=O)Nc2ccccc2)cc(OC)c1OC" 14.3

====

# STUDY_SYSTEM: Tubulin (Homo sapiens) (UniProt P68371+Q9H4B7+P0DPH7+P68366+Q13509+Q71U36+P04350+Q3ZCM7+P07437+P68363+Q9BQE3+Q6PEY2+Q13885+Q9BVA1+Q9BUF5)
# PROTOCOL_SUMMARY: Activation of tubulin (unknown origin) polymerization at 10 uM
# Type: protein-complex assay
MEASURE: Activity (%)
Answer format: numeric, % implied, no suffix.

Consider the following illustrative entries.
{"columns": ["COMPOUND", "VALUE_UNITS", "OBSERVED_RESULT"],
 "data": [
  ["CCOC(=O)C1(C(=O)NCCc2ccc(F)cc2)CC1c1cc(OC)c(OC)c(OC)c1 (cis isomer)", "%", 40.8],
  ["COc1cc([C@@H]2C[C@]2(CO)C(=O)Nc2ccccc2Cl)cc(OC)c1OC", "%", 24.3],
  ["CC(=O)O[C@H]1C(=O)[C@@]2(C)[C@H]([C@H](OC(=O)c3ccccc3)[C@]3(O)C[C@H](OC(=O)[C@H](O)[C@@H](NC(=O)c4ccccc4)c4ccccc4)C(C)=C1C3(C)C)[C@]1(OC(C)=O)CO[C@@H]1C[C@@H]2O", "%", 245]
]}

Now look at this one.
Tell me the measured Activity of CCOC(=O)C1(C(=O)Nc2ccc(OC)cc2)CC1c1cc(OC)c(OC)c(OC)c1 (cis isomer) , please. 25

====

Overview of recorded pIC50 for various compounds
# System: SW480
# PROTOCOL_SUMMARY: Cytotoxicity against human SW480 cells after 48 hrs by MTT assay
# Type: functional, cell-based
# PARTICULARS: Homo sapiens, SW480, 48 h
# log scale: pIC50 equals minus log10 of the concentration in mol/L

{"columns": ["COMPOUND", "STUDY_SYSTEM", "pIC50"],
 "data": [
  ["CCOC(=O)C1(C(=O)NCc2ccccc2)CC1c1cc(OC)c(OC)c(OC)c1 (cis isomer)", "SW480", 4.05]
]}

Tell me the measured pIC50 of "COc1cc([C@@H]2C[C@@]2(CO)C(=O)Nc2ccccc2Cl)cc(OC)c1OC" , please. 4.97

Tell me the measured pIC50 of CCOC(=O)C1(C(=O)Nc2ccc(F)cc2)CC1c1cc(OC)c(OC)c(OC)c1 (cis isomer) , please. 4.33

Tell me the measured pIC50 of CCOC(=O)C1(C(=O)NCCc2ccc(F)cc2)CC1c1cc(OC)c(OC)c(OC)c1 (cis isomer) , please. 4.12

Tell me the measured pIC50 of "CCOC(=O)[C@]1(C(=O)Nc2ccccc2Cl)C[C@H]1c1cc(OC)c(OC)c(OC)c1" , please. 4.59

Tell me the measured pIC50 of "COc1cc([C@H]2C[C@]2(CO)C(=O)NCc2ccc(C)cc2)cc(OC)c1OC" , please. 4.03

====

# System: SW480
# PROTOCOL_SUMMARY: Cytotoxicity against human SW480 cells after 48 hrs by MTT assay
# Type: functional, cell-based
# PARTICULARS: Homo sapiens, SW480, 48 h
Overview of recorded pIC50 for various compounds
# log scale: pIC50 equals minus log10 of the concentration in mol/L

Consider the following illustrative entries.
{"columns": ["COMPOUND", "STUDY_SYSTEM", "pIC50"],
 "data": [
  ["COc1cc([C@@H]2C[C@]2(CO)C(=O)NCc2ccc(C)cc2)cc(OC)c1OC", "SW480", 4.57],
  ["COc1ccc(/C=C\\c2cc(OC)c(OC)c(OC)c2)cc1O", "SW480", 7.74],
  ["CCOC(=O)C1(C(=O)NCc2ccc(F)cc2)CC1c1cc(OC)c(OC)c(OC)c1 (stereo in doubt)", "SW480", 4.47],
  ["O=c1[nH]cc(F)c(=O)[nH]1", "SW480", 3.80],
  ["COc1cc([C@H]2C[C@]2(CO)C(=O)Nc2ccccc2Cl)cc(OC)c1OC", "SW480", 4.40],
  ["COc1cc([C@@H]2C[C@]2(CO)C(=O)Nc2ccccc2Cl)cc(OC)c1OC", "SW480", 4.88],
  ["CCOC(=O)[C@@]1(C(=O)Nc2ccccc2Cl)C[C@H]1c1cc(OC)c(OC)c(OC)c1", "SW480", 4.52],
  ["CCOC(=O)C1(C(=O)Nc2ccccc2[N+](=O)[O-])CC1c1cc(OC)c(OC)c(OC)c1 (stereo in doubt)", "SW480", 4.47],
  ["COc1cc([C@@H]2C[C@@]2(CO)C(=O)NCc2ccc(C)cc2)cc(OC)c1OC", "SW480", 4.12]
]}

Now look at this one.
Tell me the measured pIC50 of "CCOC(=O)[C@@]1(C(=O)Nc2ccccc2Cl)C[C@@H]1c1cc(OC)c(OC)c(OC)c1" , please. 4.33
